- test.target: GlyT-1 C (Homo sapiens)
- Construct: expressed in transfected cells; QT-6 quail fibroblast cells are called preferred
- Sequence (P48067 1-706): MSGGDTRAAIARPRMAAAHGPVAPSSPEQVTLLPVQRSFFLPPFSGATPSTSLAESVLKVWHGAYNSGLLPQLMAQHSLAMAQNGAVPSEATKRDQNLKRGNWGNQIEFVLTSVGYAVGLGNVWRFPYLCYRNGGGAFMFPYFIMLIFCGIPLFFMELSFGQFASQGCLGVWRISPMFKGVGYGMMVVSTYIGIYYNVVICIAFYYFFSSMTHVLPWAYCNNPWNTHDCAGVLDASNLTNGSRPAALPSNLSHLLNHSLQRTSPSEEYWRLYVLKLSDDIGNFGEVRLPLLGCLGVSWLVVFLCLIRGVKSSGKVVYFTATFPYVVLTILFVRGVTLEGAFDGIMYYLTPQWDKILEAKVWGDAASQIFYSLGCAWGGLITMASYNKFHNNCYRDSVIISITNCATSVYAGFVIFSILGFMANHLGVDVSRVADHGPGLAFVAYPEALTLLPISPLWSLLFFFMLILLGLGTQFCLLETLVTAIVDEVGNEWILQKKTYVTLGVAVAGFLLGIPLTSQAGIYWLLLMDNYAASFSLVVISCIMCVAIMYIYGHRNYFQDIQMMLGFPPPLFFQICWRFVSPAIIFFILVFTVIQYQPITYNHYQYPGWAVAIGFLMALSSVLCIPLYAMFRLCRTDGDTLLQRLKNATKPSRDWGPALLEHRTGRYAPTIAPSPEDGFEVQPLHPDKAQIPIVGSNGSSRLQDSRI
- test.method.notes: Assay of transport via GlyT-1: [3H]glycine uptake by stably transfected cells
- Type: cell-based
- setup.conditions: cells stably transfected with GlyT-1 C; 50 nM [3H]glycine, 30 minutes at 37° C.; read-out: GlyT1 uptake IC50
- Experimental: For use in assaying for activity in inhibiting glycine transport, eukaryokic cells, preferably QT-6 cells derived from quail fibroblasts, have been transfected to express one of the three known variants of human GlyT-1, namely GlyT-1a, GlyT-1b or GlyT-1c, or human GlyT-2. […] Cells stably transfected with GlyT-1 C (see Kim, et al., Molecular Pharmacology, 45, 1994:608-617) were washed twice with HEPES buffered saline (HBS). […] The radioactivity in the cells was determined using a scintillation counter. […]
quantity: pIC50
pIC50 is defined as minus the log10 of a concentration measured in mol/L.

Entry under test: COc1ccc([N+](=O)[O-])cc1NC(=S)NC(C(=O)Nc1ccc2c(c1)CCC2)c1ccsc1 (stereo not shown) . Its pIC50 was 6.88

Entry under test: COc1ccc([N+](=O)[O-])cc1NC(=S)N[C@@H](C(=O)Nc1ccc(C)c(C)c1)c1ccccc1 . Its pIC50 was 7.02

Entry under test: COc1ccc([N+](=O)[O-])cc1NC(=O)N[C@@H](C(=O)Nc1ccc(C)c(C)c1)c1ccccc1 . Its pIC50 was 7.59

Entry under test: COc1ccc([N+](=O)[O-])cc1NC(=O)NC(C(=O)Nc1ccc2c(c1)CCC2)c1ccsc1 (stereo not shown) . Its pIC50 was 6.94

Entry under test: COc1ccc([N+](=O)[O-])cc1NC(=O)NC(C(=O)Nc1cccc(C(F)(F)F)c1)c1ccccc1 (stereo not shown) . Its pIC50 was 6.69

Entry under test: COc1ccc([N+](=O)[O-])cc1NC(=S)NC(C(=O)Nc1ccc(C)c(C)c1)c1ccccc1 (stereo not shown) . Its pIC50 was 6.48

Entry under test: COc1ccc([N+](=O)[O-])cc1NC(=O)N[C@@H](C(=O)Nc1ccc2c(c1)CCC2)c1ccccc1 . Its pIC50 was 7.14
